# assay_target: NADPH oxidase 2 (Homo sapiens) (UniProt P04839)
# Sequence (P04839 whole entry, looked up): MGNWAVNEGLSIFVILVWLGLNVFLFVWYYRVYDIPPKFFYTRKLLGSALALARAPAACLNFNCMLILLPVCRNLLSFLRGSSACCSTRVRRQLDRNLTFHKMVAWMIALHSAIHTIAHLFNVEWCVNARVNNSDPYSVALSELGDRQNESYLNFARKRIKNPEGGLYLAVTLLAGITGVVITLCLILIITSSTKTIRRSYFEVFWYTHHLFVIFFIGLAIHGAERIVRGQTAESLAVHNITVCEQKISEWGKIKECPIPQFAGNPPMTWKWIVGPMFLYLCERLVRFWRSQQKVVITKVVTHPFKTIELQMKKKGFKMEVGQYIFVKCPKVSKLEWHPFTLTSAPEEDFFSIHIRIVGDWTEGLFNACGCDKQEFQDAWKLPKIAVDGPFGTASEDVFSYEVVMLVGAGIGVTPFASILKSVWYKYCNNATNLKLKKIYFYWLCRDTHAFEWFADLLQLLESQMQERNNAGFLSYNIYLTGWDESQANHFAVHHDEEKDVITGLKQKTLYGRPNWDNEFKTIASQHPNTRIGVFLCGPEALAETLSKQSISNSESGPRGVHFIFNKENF
# procedure_summary: compounds shifting NOX2 Amplex Red fluorescence – cell-based, HEK293-NOX2, PMA-stimulated, NOX inhibitor project, primary screen (AID 1159); note: test concentration not given here
# measurement_parameters: 45 min, higher = more signal, called active from +8 up or from −8 down
# cutoff -0.3 applies to z-score; >= gives true, < gives false

| compound | class_name |
| --- | --- |
| COC(=O)[C@@]1(Cc2ccc(F)cc2)[C@H]2c3cc(C(=O)N(C)C)n(Cc4ccc(C)c(F)c4F)c3C[C@H]2CN1C(=O)c1ccccc1 | true |

Q: Quick check: does O=c1c2ccc(Br)cc2nc(-c2ccccc2)n1Cc1cccc(O)c1 have z-score greater than or equal to -0.3?
Result: false

Q: Next: CCOc1cc(C(O)C2C=CC3C(=O)NC(=O)C3N2Nc2ccccn2)ccc1O (configuration not stated)
Result: false

Q: Would you mind doing C=C(COC)/C(=C/C[C@@H](OC(=O)c1ccncc1)c1cccc(OCCO)c1)c1cc(C(=O)OC)ccc1OC as well?
Result: false

Q: Query C[C@H]1NC(=O)C([C@@H](C)OCc2ccccc2)NC(=O)[C@@]23C(=O)N[C@@H](Cc4ccccc4)C2[C@H](C)[C@@]2(C)O[C@H]2C3/C=C/CC/C=C/CNC1=O (some centres not stated) next
Result: true

###

# assay_target: Calmodulin-1 (Homo sapiens)
# procedure_summary: small molecules binding calmodulin-1 with EGTA – biochemical, small-molecule microarray, Cy5-labelled CALM1, profiling panel (AID 1111);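 note: labelled calmodulin applied in Tris saline Tween buffer holding calcium plus EGTA and DTT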
# measurement_parameters: Cy5-CALM1 binding fluorescence, higher = more signal
measured_quantity: composite z-score
Respond using a number only.

Some compounds with recorded composite z-score:
| compound | measured_value |
| --- | --- |
| O=C1CSC(c2cccc([N+](=O)[O-])c2)N1c1ccccc1 (stereo unspecified) | 0.331 |
| C[C@]12C(=O)N(CCCO)[C@@H]3C(=O)N(c4ccc(Cl)cc4)CC=CC31O[C@@H]1/C=C\CCCOC(=O)C12 (stereo partly specified) | -0.887 |
| CC(C)NC(=O)[C@@H]1c2ccccc2C(=O)N(Cc2cc(C(F)(F)F)cc(C(F)(F)F)c2)[C@H]1c1ccc(CO)cc1 | 0.876 |
| O=C1N(CCS(=O)(=O)c2ccccc2)c2ccccc2[C@H]2OC(c3ccc(OCCCO)cc3)=N[C@@]12CCS(=O)(=O)c1ccccc1 | 0.589 |

Q: API: value(readout= composite z-score, system= Calmodulin-1 (Homo sapiens), query= COc1ccc(C(=O)Nc2ccc(CN3C(=O)[C@]4(O[C@H](CCn5cc([C@H](O)c6ccccc6)nn5)[C@@H]([Si](C)(C)c5ccc(OC)cc5)[C@@H]4C)c4ccccc43)cc2)cc1 )
Result: -0.0217

Q: // next record COC(=O)[C@]1(Cc2ccccc2CN=[N+]=[N-])N=C(c2ccc(OCCCO)cc2)O[C@@H]1c1ccccc1
Result: -0.103

Q: CC(C)NC(=O)[C@@]1(Cc2ccccc2I)c2ccccc2C(=O)N(Cc2ccccc2C(F)(F)F)[C@H]1c1ccc(CO)cc1 , same question.
Result: 0.503

Q: Please answer likewise for CC(C)CCC[C@@H](C)[C@H]1CC[C@@]2(C)C3=C(CC[C@]12C)[C@@]1(C)CC[C@H](OC(=O)C(C)(C)C)C(C)(C)C1CC3 (stereo partly specified)
Result: 0.0548

Q: Subsequent entry: CC(C)CNC(=O)[C@@]1(c2ccc([N+](=O)[O-])cc2)CC(=O)N(C(C)C)[C@@H]1c1ccc(CO)cc1
Result: -0.505

Q: // same read-out, input: [N-]=[N+]=NCc1ccccc1[C@H]1OC(c2ccc(OCCCO)cc2)=N[C@@]1(Cc1ccccc1N=[N+]=[N-])C(=O)N1CCCCC1
Result: 1

Q: And the next one, Cc1ccc(S[C@]2(C(=O)NCCN3CCOCC3)CC(=O)N(C3Cc4ccccc4C3)[C@@H]2c2ccc(CO)cc2)cc1 ?
Result: -0.482

Q: Another compound to look at: NC(=O)[C@H]1[C@@H]2C(=O)O[C@@H](c3ccccc3)[C@@H](c3ccccc3)N2[C@@H](c2ccc(O)cc2)[C@]12C(=O)Nc1ccc(C#CC3(O)CCCCCC3)cc12
Result: 0.861

Q: Another compound to check: NC(=O)[C@@H]1[C@H]2C(=O)O[C@H](c3ccccc3)[C@H](c3ccccc3)N2[C@H](c2ccccc2OCCO)[C@@]12C(=O)Nc1ccc(C#CCCO)cc12
Result: 0.613

Q: Also C=C(COC)C(=O)CC[C@H](OC(=O)c1ccccc1-c1ccccc1C(=O)O)c1ccc(OCCO)cc1 , if possible.
Result: 0.0421

Q: Same question, CCN(CC)c1ccc(N2CC=CC34O[C@@H]5/C=C\CCCOC(=O)C5[C@H]3C(=O)N(CCCCCCO)[C@@H]4C2=O)cc1 (stereo partly specified) this time
Result: -1.18

Q: And then COc1cc2c(cc1OC)CN(C(=O)[C@@H]1[C@H]3C(=O)O[C@H](c4ccccc4)[C@H](c4ccccc4)N3[C@H](c3ccc(OCCO)cc3)[C@@]13C(=O)Nc1ccc(C#CCCO)cc13)CC2 , what is it?
Result: 1.73

Q: And for O=C(O)[C@]1(CCS(=O)(=O)c2ccccc2)N=C(c2ccc(OCCCO)cc2)O[C@@H]1c1ccccc1 ?
Result: 0.737

Q: Again, but for C=CCN1C(=O)[C@@]2(O[C@@H](CCn3cc([C@H](O)c4ccccc4)nn3)[C@H]([Si](C)(C)c3ccc(OC)cc3)[C@H]2C)c2cc(NC(=O)c3ccc(OC)cc3)ccc21
Result: 0.607

Q: COc1ccc([Si](C)(C)[C@@H]2[C@@H](CCO)O[C@]3(C(=O)N(Cc4ccc(N5C(=O)c6ccccc6Oc6ccccc65)cc4)c4ccccc43)[C@H]2C)cc1 ?
Result: 0.322

Q: Would you mind doing CCOC(=O)C[C@H]1[C@H](OC(=O)c2ccc(C(=O)c3ccccc3)cc2)[C@@H](NC(=O)C2CCCCC2)c2cc(OCCCO)ccc2N1C(=O)Cc1ccc(OC)cc1 as well?
Result: 1.13

Q: Check COc1ccc(C(=O)Nc2ccc3c(c2)[C@]2(O[C@@H](CCO)[C@H]([Si](C)(C)c4ccc(OC)cc4)[C@H]2C)C(=O)N3Cc2ccccc2)cc1 too.
Result: 0.475
